Values of AC50 reported for Androgen receptor (Homo sapiens) appear below.
readout-label: AC50

[
  {
    "compound": "CN(C)c1ccc(O)c2c1C[C@H]1C[C@H]3[C@H](N(C)C)C(O)=C(C(N)=O)C(=O)[C@@]3(O)C(O)=C1C2=O",
    "reported": "> 30 µM"
  },
  {
    "compound": "CC(=O)O[C@H]1Cc2ccccc2N(C(N)=O)c2ccccc21 [ESLICARBAZEPINE ACETATE]",
    "reported": "> 30 µM"
  },
  {
    "compound": "C[C@H]1O[C@@H](O[C@H]2CC[C@@]3(C)[C@H](CC[C@@H]4[C@@H]3C[C@@H](O)[C@]3(C)[C@@H](C5=CC(=O)OC5)CC[C@]43O)C2)C[C@H](O)[C@@H]1O[C@H]1C[C@H](O)[C@H](O[C@H]2C[C@H](O)[C@H](O[C@@H]3O[C@H](CO)[C@@H](O)[C@H](O)[C@H]3O)[C@@H](C)O2)[C@@H](C)O1 [DESLANOSIDE]",
    "reported": "> 30 µM"
  },
  {
    "compound": "COc1cc(C)c2c(Oc3cccc(C(F)(F)F)c3)c(OC)cc(NC(C)CCCN)c2n1 (centres undefined)",
    "reported": "> 30 µM"
  },
  {
    "compound": "C=CC(=O)Nc1cccc(Oc2nc(Nc3ccc(N4CCN(C)CC4)cc3)nc3ccsc23)c1",
    "reported": "> 30 µM"
  },
  {
    "compound": "COc1cccc(C(=O)CCN[C@@H](C)[C@H](O)c2ccccc2)c1",
    "reported": "> 30 µM"
  },
  {
    "compound": "CCCCC(CC)CN1CN(CC(CC)CCCC)CC(C)(N)C1 (centres undefined)",
    "reported": "> 30 µM"
  },
  {
    "compound": "CC(C)(C)NC(=O)N[C@H](C(=O)N1C[C@H]2[C@@H]([C@H]1C(=O)NC(CC1CCC1)C(=O)C(N)=O)C2(C)C)C(C)(C)C (some centres undefined)",
    "reported": "> 30 µM"
  },
  {
    "compound": "O=S1(=O)CCN(CN2CCS(=O)(=O)NC2)CN1",
    "reported": "> 30 µM"
  },
  {
    "compound": "CCCCC1C(=O)N(c2ccccc2)N(c2ccc(O)cc2)C1=O (centres undefined) [OXYPHENBUTAZONE ANHYDROUS]",
    "reported": "> 30 µM"
  },
  {
    "compound": "Cc1ccc(C)c(OCCCC(C)(C)C(=O)O)c1",
    "reported": "> 30 µM"
  },
  {
    "compound": "Cc1oc(=O)oc1COC(=O)[C@@H]1N2C(=O)[C@@H](NC(=O)[C@H](N)c3ccccc3)[C@H]2SC1(C)C",
    "reported": "> 30 µM"
  },
  {
    "compound": "CC(C)C(=O)Oc1ccc(CO)cc1[C@H](CCN(C(C)C)C(C)C)c1ccccc1",
    "reported": "> 30 µM"
  },
  {
    "compound": "CC[C@@H]1C[C@]1(NC(=O)[C@@H]1C[C@@H]2CN1C(=O)[C@H](C(C)(C)C)NC(=O)OCC(C)(C)CCCCc1cccc3c1CN(C3)C(=O)O2)C(=O)NS(=O)(=O)C1CC1",
    "reported": "> 30 µM"
  }
]

###

Recorded AC50 for the following molecules
# measurement-target: Gamma-aminobutyric acid receptor subunit alpha-1 (Rattus norvegicus); note: assay procedure not described here
# Sequence (P62813 whole entry): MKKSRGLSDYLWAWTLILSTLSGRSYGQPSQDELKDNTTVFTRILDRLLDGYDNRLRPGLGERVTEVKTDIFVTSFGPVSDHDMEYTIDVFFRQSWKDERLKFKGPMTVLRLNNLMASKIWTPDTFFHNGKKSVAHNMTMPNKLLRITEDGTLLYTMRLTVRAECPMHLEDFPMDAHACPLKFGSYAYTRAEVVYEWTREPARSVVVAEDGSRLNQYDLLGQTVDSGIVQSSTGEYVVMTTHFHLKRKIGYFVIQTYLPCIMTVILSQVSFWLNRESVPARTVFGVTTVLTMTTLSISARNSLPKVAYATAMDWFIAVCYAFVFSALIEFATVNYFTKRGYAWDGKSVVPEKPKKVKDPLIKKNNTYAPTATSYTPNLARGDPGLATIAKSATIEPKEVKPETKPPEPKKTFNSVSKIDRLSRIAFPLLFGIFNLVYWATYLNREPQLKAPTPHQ

[
  {
    "molecule": "O=C1c2ccccc2C(=O)C1c1ccccc1 [PHENINDIONE]",
    "measurement-target": "Gamma-aminobutyric acid receptor subunit alpha-1 (Rattus norvegicus)",
    "AC50": "> 10 µM"
  },
  {
    "molecule": "Clc1ccc(CCC(Cn2ccnc2)Sc2c(Cl)cccc2Cl)cc1 (centres undefined) [BUTOCONAZOLE]",
    "measurement-target": "Gamma-aminobutyric acid receptor subunit alpha-1 (Rattus norvegicus)",
    "AC50": "> 30 µM"
  },
  {
    "molecule": "C[N+]1(C)CCC(=C(c2ccccc2)c2ccccc2)CC1",
    "measurement-target": "Gamma-aminobutyric acid receptor subunit alpha-1 (Rattus norvegicus)",
    "AC50": "> 10 µM"
  },
  {
    "molecule": "O=C(O)CCNC(=O)c1ccc(/N=N/c2ccc(O)c(C(=O)O)c2)cc1 [BALSALAZIDE]",
    "measurement-target": "Gamma-aminobutyric acid receptor subunit alpha-1 (Rattus norvegicus)",
    "AC50": "> 30 µM"
  },
  {
    "molecule": "CN[C@@H](C)[C@@H](O)c1ccccc1 [PSEUDOEPHEDRINE]",
    "measurement-target": "Gamma-aminobutyric acid receptor subunit alpha-1 (Rattus norvegicus)",
    "AC50": "> 10 µM"
  },
  {
    "molecule": "CCC1(c2ccc(N)cc2)CCC(=O)NC1=O (centres undefined) [AMINOGLUTETHIMIDE]",
    "measurement-target": "Gamma-aminobutyric acid receptor subunit alpha-1 (Rattus norvegicus)",
    "AC50": "> 30 µM"
  },
  {
    "molecule": "CCCCCCCN(CC)CCCC(O)c1ccc(NS(C)(=O)=O)cc1 (centres undefined) [IBUTILIDE]",
    "measurement-target": "Gamma-aminobutyric acid receptor subunit alpha-1 (Rattus norvegicus)",
    "AC50": "> 30 µM"
  },
  {
    "molecule": "C[C@]12C/C(=C/O)C(=O)C[C@@H]1CC[C@@H]1[C@@H]2CC[C@@]2(C)[C@H]1CC[C@]2(C)O [OXYMETHOLONE]",
    "measurement-target": "Gamma-aminobutyric acid receptor subunit alpha-1 (Rattus norvegicus)",
    "AC50": "> 30 µM"
  },
  {
    "molecule": "CCC(=O)O[C@]1(C(=O)CCl)[C@@H](C)C[C@H]2[C@@H]3CCC4=CC(=O)C=C[C@]4(C)[C@@]3(F)[C@@H](O)C[C@@]21C [CLOBETASOL PROPIONATE]",
    "measurement-target": "Gamma-aminobutyric acid receptor subunit alpha-1 (Rattus norvegicus)",
    "AC50": "> 30 µM"
  },
  {
    "molecule": "CC1=C(/C=C/C(C)=C/C=C/C(C)=C/CO)C(C)(C)CCC1 [RETINOL]",
    "measurement-target": "Gamma-aminobutyric acid receptor subunit alpha-1 (Rattus norvegicus)",
    "AC50": "> 10 µM"
  },
  {
    "molecule": "CC1=C(C(=O)OC(C)C)C(c2cccc([N+](=O)[O-])c2)C(C(=O)OC2CN(C(c3ccccc3)c3ccccc3)C2)=C(N)N1 (centres undefined) [AZELNIDIPINE]",
    "measurement-target": "Gamma-aminobutyric acid receptor subunit alpha-1 (Rattus norvegicus)",
    "AC50": "> 30 µM"
  },
  {
    "molecule": "OC[C@H]1O[C@@H](n2cnc3c2NC=NC[C@H]3O)C[C@@H]1O [PENTOSTATIN]",
    "measurement-target": "Gamma-aminobutyric acid receptor subunit alpha-1 (Rattus norvegicus)",
    "AC50": "> 30 µM"
  },
  {
    "molecule": "C[C@@H]1C[C@H]2[C@@H]3C[C@H](F)C4=CC(=O)C=C[C@]4(C)[C@@]3(F)[C@@H](O)C[C@]2(C)[C@@]1(OC(=O)c1ccco1)C(=O)SCF [FLUTICASONE FUROATE]",
    "measurement-target": "Gamma-aminobutyric acid receptor subunit alpha-1 (Rattus norvegicus)",
    "AC50": "> 30 µM"
  },
  {
    "molecule": "O=C(/C=C/c1cccc(S(=O)(=O)Nc2ccccc2)c1)NO [BELINOSTAT]",
    "measurement-target": "Gamma-aminobutyric acid receptor subunit alpha-1 (Rattus norvegicus)",
    "AC50": "> 10 µM"
  },
  {
    "molecule": "C[C@]12C=CC(=O)C=C1CC[C@@H]1[C@@H]2CC[C@]2(C)OC(=O)CC[C@@H]12 [TESTOLACTONE]",
    "measurement-target": "Gamma-aminobutyric acid receptor subunit alpha-1 (Rattus norvegicus)",
    "AC50": "> 10 µM"
  },
  {
    "molecule": "CN(C)C/C=C/C(=O)Nc1cc2c(Nc3ccc(F)c(Cl)c3)ncnc2cc1O[C@H]1CCOC1 [AFATINIB]",
    "measurement-target": "Gamma-aminobutyric acid receptor subunit alpha-1 (Rattus norvegicus)",
    "AC50": "> 30 µM"
  },
  {
    "molecule": "C=CC[N+]1([C@H]2C[C@H]3[C@@H]4CC[C@H]5C[C@H](O)[C@@H](N6CCOCC6)C[C@]5(C)[C@H]4CC[C@]3(C)[C@H]2OC(C)=O)CCCC1 [ROCURONIUM]",
    "measurement-target": "Gamma-aminobutyric acid receptor subunit alpha-1 (Rattus norvegicus)",
    "AC50": "> 30 µM"
  },
  {
    "molecule": "Fc1ccc([C@@H]2CCNC[C@H]2COc2ccc3c(c2)OCO3)cc1 [PAROXETINE]",
    "measurement-target": "Gamma-aminobutyric acid receptor subunit alpha-1 (Rattus norvegicus)",
    "AC50": "> 10 µM"
  },
  {
    "molecule": "CN(C)Cc1nnc2n1-c1ccc(Cl)cc1C(c1ccccc1)=NC2 [ADINAZOLAM]",
    "measurement-target": "Gamma-aminobutyric acid receptor subunit alpha-1 (Rattus norvegicus)",
    "AC50": "> 10 µM"
  },
  {
    "molecule": "CCC(NC(C)C)C(O)c1ccc(O)c2[nH]c(=O)ccc12 (centres undefined) [PROCATEROL]",
    "measurement-target": "Gamma-aminobutyric acid receptor subunit alpha-1 (Rattus norvegicus)",
    "AC50": "> 30 µM"
  },
  {
    "molecule": "NNC(=O)c1ccncc1 [ISONIAZID]",
    "measurement-target": "Gamma-aminobutyric acid receptor subunit alpha-1 (Rattus norvegicus)",
    "AC50": "> 30 µM"
  },
  {
    "molecule": "CCc1nc(N)nc(N)c1-c1ccc(Cl)cc1 [PYRIMETHAMINE]",
    "measurement-target": "Gamma-aminobutyric acid receptor subunit alpha-1 (Rattus norvegicus)",
    "AC50": "> 10 µM"
  },
  {
    "molecule": "COc1ccc(C2C(=O)c3ccccc3C2=O)cc1 [ANISINDIONE]",
    "measurement-target": "Gamma-aminobutyric acid receptor subunit alpha-1 (Rattus norvegicus)",
    "AC50": "> 10 µM"
  },
  {
    "molecule": "CN1CCN=C(c2ccccc2)c2cc(Cl)ccc21 [MEDAZEPAM]",
    "measurement-target": "Gamma-aminobutyric acid receptor subunit alpha-1 (Rattus norvegicus)",
    "AC50": "> 30 µM"
  },
  {
    "molecule": "C[C@@H]1C[C@H]2[C@@H]3CCC4=CC(=O)C=C[C@]4(C)[C@@]3(F)[C@@H](O)C[C@]2(C)[C@@]1(O)C(=O)CO [DEXAMETHASONE]",
    "measurement-target": "Gamma-aminobutyric acid receptor subunit alpha-1 (Rattus norvegicus)",
    "AC50": "> 10 µM"
  },
  {
    "molecule": "C=CCN1CCc2nc(N)sc2CC1 [TALIPEXOLE]",
    "measurement-target": "Gamma-aminobutyric acid receptor subunit alpha-1 (Rattus norvegicus)",
    "AC50": "> 30 µM"
  },
  {
    "molecule": "CCCc1cc(=O)[nH]c(=S)[nH]1 [PROPYLTHIOURACIL]",
    "measurement-target": "Gamma-aminobutyric acid receptor subunit alpha-1 (Rattus norvegicus)",
    "AC50": "> 10 µM"
  },
  {
    "molecule": "CC(=O)[C@H]1CC[C@H]2[C@@H]3C[C@H](C)C4=CC(=O)CC[C@]4(C)[C@H]3[C@@H](O)C[C@]12C [MEDRYSONE]",
    "measurement-target": "Gamma-aminobutyric acid receptor subunit alpha-1 (Rattus norvegicus)",
    "AC50": "> 10 µM"
  },
  {
    "molecule": "CCOC(=O)C1=C(C)NC(C)=C(C(=O)OCC)C1c1ccccc1/C=C/C(=O)OC(C)(C)C [LACIDIPINE]",
    "measurement-target": "Gamma-aminobutyric acid receptor subunit alpha-1 (Rattus norvegicus)",
    "AC50": "> 30 µM"
  },
  {
    "molecule": "CCCC(C)(COC(N)=O)COC(N)=O [MEPROBAMATE]",
    "measurement-target": "Gamma-aminobutyric acid receptor subunit alpha-1 (Rattus norvegicus)",
    "AC50": "> 10 µM"
  },
  {
    "molecule": "COC(=O)C1=C(C)NC(C)=C(C(=O)OCCN2CCN(C(c3ccccc3)c3ccccc3)CC2)C1c1cccc([N+](=O)[O-])c1 (centres undefined) [MANIDIPINE 6300]",
    "measurement-target": "Gamma-aminobutyric acid receptor subunit alpha-1 (Rattus norvegicus)",
    "AC50": "> 30 µM"
  },
  {
    "molecule": "CC/C=C\\C/C=C\\C/C=C\\C/C=C\\C/C=C\\CCCC(=O)OCC [ICOSAPENT ETHYL]",
    "measurement-target": "Gamma-aminobutyric acid receptor subunit alpha-1 (Rattus norvegicus)",
    "AC50": "> 30 µM"
  },
  {
    "molecule": "COc1cc(C)c(/C=C/C(C)=C/C=C/C(C)=C/C(=O)O)c(C)c1C [ACITRETIN]",
    "measurement-target": "Gamma-aminobutyric acid receptor subunit alpha-1 (Rattus norvegicus)",
    "AC50": "> 10 µM"
  },
  {
    "molecule": "CC(C(=O)O)c1ccc2oc(-c3ccc(Cl)cc3)nc2c1 (centres undefined) [BENOXAPROFEN]",
    "measurement-target": "Gamma-aminobutyric acid receptor subunit alpha-1 (Rattus norvegicus)",
    "AC50": "> 30 µM"
  }
]
